// provenance: PubChem BioAssay AID1159580

# Protocol: chemical genetic growth profiling, strain panel (AID 1159580);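 note: tested at 20 µM; growth read once vehicle control cultures reached saturation at 30 °C; 1 = growth at the plate median or of vehicle wells; lower values mean less growth of the strain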
# Cond: S. cerevisiae deletion strains, growth OD, locus YDL101C, strain DUN1, hits give low values
The whole screen tested about 5,500 compounds, of which about 2,000 (36%) were called active. Roughly 18% stayed inconclusive and do not appear here. This is one part of the list.
In plain terms, low normalized growth, meaning strictly below 1, gives class 1, and everything else gives class 0.

| Compound | Assigned Label |
| --- | --- |
| CCN(CC)CCCC(C)Nc1ccnc2cc(Cl)ccc12 (centres undefined) | class 0 |

Let's switch to this compound now.
Lab note: confirm whether the reported normalized growth for this compound is below 1, equality not counting. compound: CCCCCCCCNC(C)C(O)c1ccc(SC(C)C)cc1 (centres undefined)
class 1

###

# Protocol: chemical genetic growth profiling, strain panel (AID 1159580);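 note: tested at 20 µM; growth read once vehicle control cultures reached saturation at 30 °C; 1 = growth at the plate median or of vehicle wells; lower values mean less growth of the strain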
# Cond: S. cerevisiae deletion strains, growth OD, locus YER123W, strain YCK3
Screen size: about 5,500 compounds; about 2,000 (36%) were called active. Inconclusive results (about 18%) are left out. Rule as the data show it: active = normalized growth mostly below about 0.91 (no sharp cut-off); inconclusive = no clear call, values can overlap the other calls; inactive = mostly above about 0.92. This is one part of the list.
Would you mind answering with one of these outcomes? active, inactive

| Molecule | Assigned Label |
| --- | --- |
| Cc1ccc(OCC2SCCN2C(=O)c2ccc(C(F)(F)F)cc2)c([N+](=O)[O-])c1 (stereo unspecified) | inactive |

Would you mind telling me which call this test gave COc1cc2c(cc1OC)C(C)N(C(=O)c1sc3ccccc3c1Cl)CC2 (stereo unspecified) ?
inactive

Now give it for CCOC(=O)CSC(=S)NCc1ccc(C)cc1 too.
inactive

// next record COc1ccc(CN2CSC(=S)N(Cc3ccc(OC)cc3)C2)cc1
inactive

Next entry: Cc1cc(C(=O)Nc2ccc(Cl)cc2)nn1C(C)(C)C
inactive

Same again, this time with COc1ccc(NNC(=O)c2sc3ccccc3c2Cl)cc1
active

###

# Protocol: chemical genetic growth profiling, strain panel (AID 1159580);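 note: tested at 20 µM; growth read once vehicle control cultures reached saturation at 30 °C; 1 = growth at the plate median or of vehicle wells; lower values mean less growth of the strain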
# Cond: S. cerevisiae deletion strains, growth OD, locus YBR229C, strain ROT2, hits give low values
Among all 5,500 compounds or so, about 2,000 (36%) were called active. About 18% were inconclusive and are not listed. Some of the results follow.
Reported Metric: normalized growth
Numbers only.

| Compound | Reported Result |
| --- | --- |
| COc1ccc2c(c1)O[C@@H]1COc3cc(OC)c(OC)cc3[C@@H]1C2=O | 0.997 |

Batch request: normalized growth for each of the following compounds.
1. O=C1C=CC(=C(c2ccc(O)cc2)c2ccc(O)cc2)C=C1
2. COc1cc2c(cc1OC)[C@@H]1C(=O)c3ccc(OC)c(CC=C(C)C)c3O[C@@H]1CO2
3. COc1cc2c(cc1OC)C1C(=O)c3ccc4c(c3OC1CO2)CCC(C)(C)O4 (stereo not given)
4. COc1cc2c(cc1OC)[C@@H]1C(=O)c3ccc4oc(C(C)C)cc4c3O[C@@H]1CO2

1: 0.991; 2: 1.02; 3: 1; 4: 1.01

###

# Protocol: chemical genetic growth profiling, strain panel (AID 1159580);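 note: tested at 20 µM; growth read once vehicle control cultures reached saturation at 30 °C; 1 = growth at the plate median or of vehicle wells; lower values mean less growth of the strain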
# Cond: S. cerevisiae deletion strains, growth OD, locus YGR252W, strain gcn5
The campaign covered roughly 5,500 compounds. About 2,000 (36%) were called active. Not shown: some 18% with an inconclusive outcome. No stated cut-off is given here; in the data, active means normalized growth mostly below about 0.91 (no sharp cut-off); inconclusive means no clear call, values can overlap the other calls; inactive means mostly above about 0.92. This is one part of the list.
Returns: one label drawn from active, inactive

| Molecule | Assigned Label |
| --- | --- |
| CN[C@@H](C)[C@@H](O)c1ccccc1 | inactive |
| COc1ccc2cc([C@H](C)C(=O)O)ccc2c1 | inactive |
| NCCSSCCN | inactive |
| CCOC(=O)[C@H](CCc1ccccc1)N[C@H]1CCc2ccccc2N(CC(=O)O)C1=O | inactive |
| CC(C)OC(=O)C(C)(C)Oc1ccc(C(=O)c2ccc(Cl)cc2)cc1 | inactive |

Record lookup: outcome of this test for CC1(C)C(C=C(Cl)Cl)C1C(=O)OC(C#N)c1cccc(Oc2ccccc2)c1 (stereo not drawn) ?
inactive

Here is the next molecule: CO[C@H]1[C@H](O)[C@H](O[C@H]2CC[C@]3(C)C4CC[C@]5(C)C(C6=CC(=O)OC6)CC[C@]5(O)C4CC[C@@H]3C2)O[C@@H](C)[C@@H]1O (stereo partly drawn)
inactive

Same for COc1cc2c(cc1OC)[C@@H]1C(=O)c3ccc4c(c3O[C@@H]1CO2)C=CC(C)(C)O4
inactive

Also need COc1cc2c(cc1OC)C1C(=O)c3c(cc4c(c3O)C=CC(C)(C)O4)OC1CO2 (stereo not drawn) , thanks.
inactive

Can you handle COc1ccc2c(c1OC)C(=O)O[C@@H]2[C@H]1c2cc3c(cc2CCN1C)OCO3 next?
inactive

Do the same for CCCCCCCCNC(C)C(O)c1ccc(SC(C)C)cc1 (stereo not drawn) please
active

What do you have for CC(C(=O)O)c1ccc(-c2ccccc2)c(F)c1 (stereo not drawn) ?
inactive

Let us now turn to CC(N)CCCC(C)(C)O (stereo not drawn)
inactive

Input CCN(CC)CCNC(=O)c1cc(Br)c(N)cc1OC
inactive

Same question, COc1cc2c(cc1OC)C1C(=O)c3ccc4c(c3OC1CO2)CCC(C)(C)O4 (stereo not drawn) this time
inactive

Similarly, S=c1nc[nH]c2nc[nH]c12 ?
inactive

Same read-out for COc1ccc2c(C)cc(=O)oc2c1 ?
inactive
